Measured PBM binding z-score values are reported for all entries that follow.
Tested on: LXRa homodimer (NR concentration 270 nM)
protocol.notes: PBM binding z-score (relative to random genomic background probes); higher = stronger binding; sequences stand for … in GC…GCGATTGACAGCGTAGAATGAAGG
Format: numeric value only, no unit, no commentary.

sequence.content | quantity.name | reported.value
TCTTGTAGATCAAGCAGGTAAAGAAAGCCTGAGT | PBM binding z-score | -0.344
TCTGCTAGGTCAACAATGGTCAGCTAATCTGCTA | PBM binding z-score | -0.0289

### Prompt Entry "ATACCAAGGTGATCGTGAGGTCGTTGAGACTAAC" : reported PBM binding z-score = ?
### Response 0.536

### Prompt Which measured PBM binding z-score value corresponds to "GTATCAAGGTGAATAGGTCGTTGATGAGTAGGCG" ?
### Response 0.272

### Prompt // returns reported PBM binding z-score for input "TCTCGGAGGACACGAACGTCAGAGCTTTCCAGAG"
### Response -0.625

### Prompt What PBM binding z-score value was documented for this sequence, "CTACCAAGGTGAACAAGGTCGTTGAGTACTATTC" ?
### Response 0.0569

### Prompt Given the sequence "GCTATTAGTTGAAAGGGCAAGCGAATGATTCTCG" , what is its reported PBM binding z-score?
### Response -0.0155

### Prompt Field request: PBM binding z-score | item: "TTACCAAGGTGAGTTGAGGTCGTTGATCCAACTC"
### Response -0.25

### Prompt Quick check: PBM binding z-score of "ATCTCTAGGTAAAAGTTCAGTGAATCCCGAGGAT" ?
### Response 1.16

### Prompt May I ask what PBM binding z-score has been recorded for "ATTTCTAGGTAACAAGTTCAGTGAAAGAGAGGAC" ?
### Response 1.04

### Prompt Entry under review: "TTTACAGGGTCAAAGGCCAGAGTACGAATGTCGA" . Reported PBM binding z-score?
### Response 2.22

### Prompt Which measured PBM binding z-score value corresponds to "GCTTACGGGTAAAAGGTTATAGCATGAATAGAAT" ?
### Response 0.384

### Prompt Field request: PBM binding z-score | item: "GCAGACAGGTGAAACGCAGGTAACTCAAGGTGGC"
### Response -0.42

### Prompt Record request: PBM binding z-score value, item "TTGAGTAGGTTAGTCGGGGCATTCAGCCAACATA"
### Response 0.413

### Prompt # get_value(readout='PBM binding z-score', item= "ATATGGAGGTTATCGGGTCATTCAGTTTGCGCAT" )
### Response 2.28

====

Test system: LXRb:RXRa (NR concentration 270 nM, RXRa partner concentration 90 nM)
protocol.notes: PBM binding z-score (relative to random genomic background probes); higher = stronger binding; sequences stand for … in GC…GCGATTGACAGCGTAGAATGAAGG
quantity.name: PBM binding z-score
// no unit string in output, number only

sequence.content | PBM binding z-score
TCATATAGGTAATACAGGTGAAAGTTGGCATCTA | 1.49
TGGATGAGGTTAAAGATCAGGGAACGTGGCGTCG | 2.45
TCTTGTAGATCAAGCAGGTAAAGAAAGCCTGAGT | 0.219
CGTCCAAGGTCAAAGGTCAGTTAAGAGATGACGG | 6.65
CCTCGGAGGACAACAGGAGGTCAGAACTGCCAGA | 1.49
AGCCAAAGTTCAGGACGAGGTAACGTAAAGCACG | 1.94

### Prompt Can you share its PBM binding z-score? I mean this sequence: "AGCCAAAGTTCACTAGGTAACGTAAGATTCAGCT"
### Response 2.81

### Prompt What does the data say about its PBM binding z-score? Entry: "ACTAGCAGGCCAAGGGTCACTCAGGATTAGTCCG"
### Response 2.69

### Prompt # lookup: PBM binding z-score of "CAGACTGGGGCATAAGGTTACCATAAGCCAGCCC"
### Response 1.27

### Prompt I am curious: what PBM binding z-score value has been reported for "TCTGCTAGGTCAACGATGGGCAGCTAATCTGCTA" ?
### Response 1.2

### Prompt Could you tell me which PBM binding z-score is on file for "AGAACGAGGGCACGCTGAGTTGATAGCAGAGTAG" ?
### Response 0.0516

### Prompt // query PBM binding z-score value for entry "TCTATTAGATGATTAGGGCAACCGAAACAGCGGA"
### Response 0.49

====

Test system: PPARg:RXRa 90nM:30nM, anti-RXR (NR concentration 90 nM, RXRa partner concentration 30 nM)
protocol.notes: PBM binding z-score (relative to random genomic background probes); higher = stronger binding; sequences stand for … in GC…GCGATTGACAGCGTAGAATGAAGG
quantity.name: PBM binding z-score
I'd appreciate a reply containing only the number, no unit.

sequence.content | tested.on | quantity.name | reported.value
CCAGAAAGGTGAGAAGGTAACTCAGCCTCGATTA | PPARg:RXRa 90nM:30nM, anti-RXR (NR concentration 90 nM, RXRa partner concentration 30 nM) | PBM binding z-score | 0.796

### Prompt # get_value(readout='PBM binding z-score', item= "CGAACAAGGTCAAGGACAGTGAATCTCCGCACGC" )
### Response 4.59

### Prompt // query PBM binding z-score value for entry "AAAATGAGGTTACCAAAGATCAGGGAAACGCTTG"
### Response 2.53

### Prompt Recorded PBM binding z-score for "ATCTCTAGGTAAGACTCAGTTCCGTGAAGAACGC" , please?
### Response 0.0962

### Prompt Entry "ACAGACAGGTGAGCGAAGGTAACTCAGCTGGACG" : reported PBM binding z-score = ?
### Response 0.269

### Prompt Field request: PBM binding z-score | item: "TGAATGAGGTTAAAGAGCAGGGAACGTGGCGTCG"
### Response 5.96

====

Each item that follows carries a reported PBM binding z-score.
System: THRa:RXRa (NR concentration 90 nM, RXRa partner concentration 90 nM)
protocol.notes: PBM binding z-score (relative to random genomic background probes); higher = stronger binding; sequences stand for … in GC…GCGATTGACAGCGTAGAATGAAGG

sequence.content | PBM binding z-score
CCGAGTAGGTCATGGGGCATTCAGGCAACGGTGA | 2.45
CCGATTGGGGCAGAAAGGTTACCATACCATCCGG | 0.945
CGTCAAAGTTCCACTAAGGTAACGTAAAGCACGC | 4.02
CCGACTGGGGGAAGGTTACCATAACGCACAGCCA | 1.1
TCTTGTCGATCAATAGAGGTTAAGAAAGTGCGCT | 1.94
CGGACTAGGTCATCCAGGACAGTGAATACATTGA | 3.48

### Prompt Which value of PBM binding z-score has been reported for "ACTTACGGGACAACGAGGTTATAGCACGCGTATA" in the records?
### Response 1.69

### Prompt What value of PBM binding z-score has been reported for the following sequence? "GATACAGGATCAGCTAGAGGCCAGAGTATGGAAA"
### Response -0.0869

### Prompt Tell me the measured PBM binding z-score of "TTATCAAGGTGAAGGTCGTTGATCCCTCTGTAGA" , please.
### Response 2.68

====

Test system: PPARg:RXRa 270nM:90nM, anti-RXR (NR concentration 270 nM, RXRa partner concentration 90 nM)
protocol.notes: PBM binding z-score (relative to random genomic background probes); higher = stronger binding; sequences stand for … in GC…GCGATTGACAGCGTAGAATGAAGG
Recorded measurements of PBM binding z-score, one per entry
Write the number on its own, no unit after it.

### Prompt Request the reported PBM binding z-score associated with "GCGACTGGGACAAAGCAGGTTACCATAAGGTTGG"
### Response 0.524

====

Test system: RXRa homodimer (NR concentration 180 nM)
protocol.notes: PBM binding z-score (relative to random genomic background probes); higher = stronger binding; sequences stand for … in GC…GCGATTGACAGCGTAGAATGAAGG
// reported PBM binding z-score per item
Would you mind answering with just the numeric figure?

sequence.content | reported.value
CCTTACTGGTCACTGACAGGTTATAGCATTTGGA | 0.874
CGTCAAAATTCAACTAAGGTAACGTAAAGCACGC | 0.529
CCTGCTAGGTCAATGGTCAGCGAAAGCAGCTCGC | 2.11
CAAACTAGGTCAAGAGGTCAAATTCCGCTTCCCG | 8.31
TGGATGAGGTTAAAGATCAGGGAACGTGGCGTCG | 4.05

### Prompt What value of PBM binding z-score has been reported for the following sequence? "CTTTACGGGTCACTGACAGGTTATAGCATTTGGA"
### Response 5.93

### Prompt Could you share which PBM binding z-score value was measured for "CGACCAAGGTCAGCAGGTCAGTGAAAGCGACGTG" ?
### Response 4.83

### Prompt Report PBM binding z-score for "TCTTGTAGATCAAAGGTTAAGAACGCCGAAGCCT" please.
### Response 3.38

### Prompt Entry under review: "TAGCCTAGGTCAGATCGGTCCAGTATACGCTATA" . Reported PBM binding z-score?
### Response 1.2

### Prompt Using the record for "ACTATTAGTTGAGACGAGGGCGACCGATAGGTTG" , report its PBM binding z-score.
### Response 0.161

### Prompt // PBM binding z-score lookup, key: "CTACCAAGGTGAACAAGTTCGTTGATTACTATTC"
### Response 0.747

### Prompt Any idea what PBM binding z-score was measured for "CCTACTGGGCCAAAAAGGTCATTGCTGCCGATAA" ?
### Response 4.99
